# EXPERIMENTAL_SYSTEM: T1, recombinant human IGF-IR (human, UniProt P08069 31-932)
# T1 construct: Bought (R&D Systems); also called insulin-like growth factor-I receptor; IGF-1R
# TEST_NAME: direct binding ELISA: plate coated with 10 nM IGF-IR, His-tagged clone detected with His-HRP probe, TMB, OD450
EXPERIMENTAL_ENDPOINT: binding result

386F11 (designed binder, FG loop optimized derivative of 338A06) VSDVPRDLEVVAATPTSLLISWSARLKVARYYRITYGETGGNSPVQEFTVPKNVYTATISGLKPGVDYTITVYAVTLTRDYKPISINYRTHHHHHH | binds
386H05 (designed binder, FG loop optimized derivative of 338A06) VSDVPRDLEVVAATPTSLLISWSARLKVARYYRITYGETGGNSPVQEFTVPKNVYTATISGLKPGVDYTITVYAVTVVRDYRPISINYRTHHHHHH | binds

Data origin, for the record: patent US20130310317A1
